Give measured IC50 for each item. Keep answers brief.
TARGET_ENTITY: recombinant N-terminal GST-tagged human Rho kinase 2 (ROCK2, amino acids 1-552) (Homo sapiens)
Construct: ROCK2, amino acids 1-552; purchased Invitrogen Inc. PV3759
Sequence (O75116 1-552): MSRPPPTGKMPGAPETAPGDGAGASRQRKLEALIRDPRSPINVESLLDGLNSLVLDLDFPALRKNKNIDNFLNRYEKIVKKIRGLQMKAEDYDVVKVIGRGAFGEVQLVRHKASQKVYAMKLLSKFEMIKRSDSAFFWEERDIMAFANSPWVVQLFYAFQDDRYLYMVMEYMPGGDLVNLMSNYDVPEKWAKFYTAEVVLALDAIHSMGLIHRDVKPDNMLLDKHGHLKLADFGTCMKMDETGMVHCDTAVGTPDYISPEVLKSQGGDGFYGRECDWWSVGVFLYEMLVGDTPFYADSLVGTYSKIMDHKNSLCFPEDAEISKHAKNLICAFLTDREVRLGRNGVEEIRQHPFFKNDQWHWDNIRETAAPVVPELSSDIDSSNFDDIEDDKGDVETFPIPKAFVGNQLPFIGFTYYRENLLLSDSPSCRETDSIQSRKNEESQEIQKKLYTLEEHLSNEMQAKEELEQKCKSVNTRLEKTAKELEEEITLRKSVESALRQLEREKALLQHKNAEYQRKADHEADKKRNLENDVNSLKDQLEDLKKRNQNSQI
MEASUREMENT_DESCRIPTION: In vitro Rho kinase assay (luciferase-based ATP consumption), ROCK2
Assay type: biochemical
CONDITIONS_USED: recombinant GST-tagged human ROCK2, luciferase-based ATP consumption; read-out: ROCK2 IC50

[
  {
    "MOLECULE": "Cc1c(-c2ccnc(N)n2)sc2ccc(CNC(=O)C(C)c3cccc(C(=O)c4ccccc4)c3)cc12 (stereo not shown) [Example 324]",
    "RESULT_VALUE": "> 5 µM"
  },
  {
    "MOLECULE": "Cc1c(-c2ccnc(N)n2)sc2ccc(C(=O)NCc3ccccn3)cc12 [Example 365]",
    "RESULT_VALUE": "< 5 µM"
  },
  {
    "MOLECULE": "Cc1c(-c2ccnc(N)n2)sc2ccc(CNC(=O)c3ccccc3C(=O)c3ccc(F)cc3)cc12 [Example 317]",
    "RESULT_VALUE": "> 5 µM"
  }
]

// input: 6 molecules below; output: IC50 for each
1. Cc1c(-c2ccnc(N)n2)sc2ccc(CNC(=O)c3ccc(Cl)cc3O)cc12 [Example 190]
2. Cc1c(-c2ccnc(N)n2)sc2ccc(C(=O)NCCN3CCOCC3)cc12 [Example 389]
3. Cc1c(-c2cc(N)nc(N)n2)sc2ccc(Cl)cc12 [Example 9]
4. CC(=O)Nc1cccc(NC(=O)c2ccc3sc(-c4ccnc(N)n4)c(C)c3c2)c1 [Example 20]
5. Cc1c(-c2ccnc(N)n2)sc2ccc(C(=O)N3CCN(CC4CCCCC4)CC3)cc12 [Example 527]
6. Cc1c(-c2ccnc(N)n2)sc2ccc(CNC(=O)c3ccc(Br)cc3)cc12 [Example 263]

Outgoing:
1. < 5 µM
2. < 5 µM
3. > 5 µM
4. < 5 µM
5. > 5 µM
6. < 5 µM

List the reported IC50 of each molecule below.
1. COc1cc(C(=O)NCc2ccc3sc(-c4ccnc(N)n4)c(C)c3c2)cc(OC)c1OC [Example 279]
2. Cc1c(-c2ccnc(N)n2)sc2ccc(C(=O)N3CCN(c4ccc(C(F)(F)F)cc4)CC3)cc12 [Example 565]
3. Cc1c(-c2ccnc(N)n2)sc2ccc(CNC(=O)Cc3ccc(C(F)(F)F)cc3)cc12 [Example 273]

Outgoing:
< 5 µM
> 5 µM
< 5 µM

Hi! Can you tell me IC50 for each of these molecules?
1. Cc1cccc(CCC(=O)NCc2ccc3sc(-c4ccnc(N)n4)c(C)c3c2)c1 [Example 168]
2. Cc1c(-c2ccnc(N)n2)sc2ccc(CNC(=O)Cc3ccc(O)c(Cl)c3)cc12 [Example 234]
3. Cc1c(-c2ccnc(N)n2)sc2ccc(C(=O)NC(C)CC(C)C)cc12 (stereo not shown) [Example 359]

Outgoing:
1: < 5 µM; 2: < 5 µM; 3: > 5 µM

----------
TARGET_ENTITY: recombinant N-terminal GST-tagged human Rho kinase 1 (ROCK1, amino acids 1-535) (Homo sapiens, UniProt Q13464)
Construct: ROCK1, amino acids 1-535; purchased Invitrogen Inc. PV-3691
Sequence (Q13464 1-535): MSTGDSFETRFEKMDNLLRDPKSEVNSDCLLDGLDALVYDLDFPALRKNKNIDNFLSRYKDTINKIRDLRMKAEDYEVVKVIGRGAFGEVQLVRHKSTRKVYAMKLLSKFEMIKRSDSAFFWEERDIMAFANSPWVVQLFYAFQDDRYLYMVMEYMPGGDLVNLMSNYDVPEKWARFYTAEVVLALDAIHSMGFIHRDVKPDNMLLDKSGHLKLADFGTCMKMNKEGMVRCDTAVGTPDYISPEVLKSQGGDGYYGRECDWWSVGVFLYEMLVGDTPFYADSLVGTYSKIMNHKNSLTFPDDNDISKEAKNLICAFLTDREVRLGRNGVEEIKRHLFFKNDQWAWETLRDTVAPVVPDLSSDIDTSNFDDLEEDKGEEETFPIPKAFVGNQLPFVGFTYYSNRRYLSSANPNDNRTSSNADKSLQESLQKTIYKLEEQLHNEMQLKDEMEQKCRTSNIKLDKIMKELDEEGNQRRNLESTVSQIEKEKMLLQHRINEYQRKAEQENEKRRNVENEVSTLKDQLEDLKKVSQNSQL
MEASUREMENT_DESCRIPTION: In vitro Rho kinase assay (luciferase-based ATP consumption), ROCK1
Format: biochemical
CONDITIONS_USED: recombinant GST-tagged human ROCK1, luciferase-based ATP consumption; read-out: ROCK1 IC50
For each entry below, report its IC50 value.

[
  {
    "COMPOUND": "COc1cccc(O)c1C(=O)NCc1ccc2sc(-c3ccnc(N)n3)c(C)c2c1 [Example 181]",
    "IC50": "< 5 µM"
  },
  {
    "COMPOUND": "Cc1c(-c2ccnc(N)n2)sc2ccc(CNC(=O)c3ccc(F)cc3F)cc12 [Example 155]",
    "IC50": "> 5 µM"
  },
  {
    "COMPOUND": "Cc1c(-c2ccnc(N)n2)sc2ccc(CNC(=O)c3c(F)c(F)c(F)c(F)c3F)cc12 [Example 276]",
    "IC50": "< 5 µM"
  }
]

# next compound below
Incoming: Returns the measured IC50 for the input compound. Input: Cc1c(-c2ccnc(N)n2)sc2ccc(CNC(=O)C(F)(F)F)cc12 [Example 105]
Outgoing: > 5 µM
